target: SpNanR (NanR) (Streptococcus pneumoniae); construct: recombinant, full-length SpNanR; assay: ITC (n = […]), DSF, crystal structures (8TX9, 8V4V), sedimentation velocity
Sequence (A0A4M6CQT5 entry or part of it): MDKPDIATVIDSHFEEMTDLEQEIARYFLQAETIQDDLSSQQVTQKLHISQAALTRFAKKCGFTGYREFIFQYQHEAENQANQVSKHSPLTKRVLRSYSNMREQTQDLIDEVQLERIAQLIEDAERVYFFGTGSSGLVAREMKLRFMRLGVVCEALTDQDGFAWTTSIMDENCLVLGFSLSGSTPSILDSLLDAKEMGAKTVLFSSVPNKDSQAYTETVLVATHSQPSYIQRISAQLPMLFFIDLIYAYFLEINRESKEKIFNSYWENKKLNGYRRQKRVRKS
endpoint: Kd (µM)
Give a bare numeral; the unit µM is implied.

Answer with reported Kd of CC(=O)N[C@@H]1C(O)O[C@H](COP(=O)(O)O)[C@@H](O)[C@@H]1O (stereo partly shown) [manNAc-6-P, N-acetylmannosamine-6-phosphate]
20.4
